target-system: L-lactate dehydrogenase (Plasmodium falciparum (isolate CDC / Honduras))
assay-text: PfLDH activity inhibition – cell lysate, 3D7 strain, counter-screen for P. falciparum growth inhibition project (AID 2304);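 further: 0% = vehicle and 100% = reference inhibitor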
measurement-parameters: P. falciparum 3D7 crude extract, LDH APAD/NBT absorbance; at 2 µM; hits give high values
measured-property: inhibition (%)
Number in %, nothing else.

Recorded inhibition (compound `O=S(=O)(NCCN1CCCC1)c1ccc(-c2cccc(CNC3Cc4ccccc4C3)c2)cc1` ): -6

Recorded inhibition (compound `COC(=O)Nc1cc(C(F)(F)F)ccc1N1CCC(CNS(=O)(=O)c2ccc(OC)cc2)CC1` ): 0

Recorded inhibition (compound `COc1ccc(NC(=O)CCNc2cc(C)nc(NCCOc3ccccc3)n2)cc1` ): -1

Recorded inhibition (compound `Cc1cc(NC(=O)c2cccs2)ccc1OC1CCN(Cc2ccc(C#N)cc2)CC1` ): 4

Recorded inhibition (compound `COc1ccccc1N1CCN(CCCCNC(=O)c2ccc(NC(=O)c3cc4ccccc4o3)cc2)CC1` ): -1

Recorded inhibition (compound CCC(C)CN1CCN(c2ccc(NC(=O)c3cccs3)cc2)C(C)C1 (stereo unspecified) ): -2
